System: NCI-H23 (human lung cancer)
Assay: In vitro cytotoxicity, SRB assay, NCI-H23
Type: cell-based
Conditions: Homo sapiens, NCI-H23; 72 h with compound, SRB; n/a = non-active compound; read-out: NCI-H23 IC50
pIC50: −log10 of the molar value.
Classify by measured pIC50: Satisfied if it is equal to or exceeds 7, Not satisfied if it is smaller.

[
  {
    "givenSmiles": "CC[C@@H](C(=O)[C@@H](C)[C@@H](O)[C@H](C)[C@@H]1O[C@@H]([C@@H](CC)C(=O)O)CC[C@@H]1C)[C@H]1O[C@]2(C=C[C@@H](NC(=O)Nc3ccccc3C(F)(F)F)[C@]3(CC[C@@](C)([C@H]4CC[C@](O)(CC)[C@H](C)O4)O3)O2)[C@H](C)C[C@@H]1C",
    "labelClass": "Satisfied"
  },
  {
    "givenSmiles": "CC[C@@H](C(=O)[C@@H](C)[C@@H](O)[C@H](C)[C@@H]1O[C@@H]([C@@H](CC)C(=O)O)CC[C@@H]1C)[C@H]1O[C@]2(C=C[C@@H](NC(=O)Nc3ccc(OC)cc3)[C@]3(CC[C@@](C)([C@H]4CC[C@](O)(CC)[C@H](C)O4)O3)O2)[C@H](C)C[C@@H]1C",
    "labelClass": "Satisfied"
  },
  {
    "givenSmiles": "C=CCNC(=O)N[C@@H]1C=C[C@]2(O[C@H]([C@@H](CC)C(=O)[C@@H](C)[C@@H](O)[C@H](C)[C@@H]3O[C@@H]([C@@H](CC)C(=O)O)CC[C@@H]3C)[C@@H](C)C[C@H]2C)O[C@@]12CC[C@@](C)([C@H]1CC[C@](O)(CC)[C@H](C)O1)O2",
    "labelClass": "Not satisfied"
  },
  {
    "givenSmiles": "CC[C@@H](C(=O)[C@@H](C)[C@@H](O)[C@H](C)[C@@H]1O[C@@H]([C@@H](CC)C(=O)O)CC[C@@H]1C)[C@H]1O[C@]2(C=C[C@@H](NC(=O)Nc3cc(C(F)(F)F)cc(C(F)(F)F)c3)[C@]3(CC[C@@](C)([C@H]4CC[C@](O)(CC)[C@H](C)O4)O3)O2)[C@H](C)C[C@@H]1C",
    "labelClass": "Not satisfied"
  },
  {
    "givenSmiles": "CC[C@@H](C(=O)[C@@H](C)[C@@H](O)[C@H](C)[C@@H]1O[C@@H]([C@@H](CC)C(=O)O)CC[C@@H]1C)[C@H]1O[C@]2(C=C[C@@H](NC(=O)NC3CCC3)[C@]3(CC[C@@](C)([C@H]4CC[C@](O)(CC)[C@H](C)O4)O3)O2)[C@H](C)C[C@@H]1C",
    "labelClass": "Not satisfied"
  }
]

Okay, now this compound:
Prompt line: Dear colleague, could you confirm whether CCNC(=S)N[C@@H]1C=C[C@]2(O[C@H]([C@@H](CC)C(=O)[C@@H](C)[C@@H](O)[C@H](C)[C@@H]3O[C@@H]([C@@H](CC)C(=O)O)CC[C@@H]3C)[C@@H](C)C[C@H]2C)O[C@@]12CC[C@@](C)([C@H]1CC[C@](O)(CC)[C@H](C)O1)O2 has pIC50 at or above 7?
Response line: Satisfied

Data origin: patent US20240294541A1
